Target: bacteriophage T4 DNA polymerase (Enterobacteria phage T4)
Construct: made in house
Sequence (P04415 whole entry): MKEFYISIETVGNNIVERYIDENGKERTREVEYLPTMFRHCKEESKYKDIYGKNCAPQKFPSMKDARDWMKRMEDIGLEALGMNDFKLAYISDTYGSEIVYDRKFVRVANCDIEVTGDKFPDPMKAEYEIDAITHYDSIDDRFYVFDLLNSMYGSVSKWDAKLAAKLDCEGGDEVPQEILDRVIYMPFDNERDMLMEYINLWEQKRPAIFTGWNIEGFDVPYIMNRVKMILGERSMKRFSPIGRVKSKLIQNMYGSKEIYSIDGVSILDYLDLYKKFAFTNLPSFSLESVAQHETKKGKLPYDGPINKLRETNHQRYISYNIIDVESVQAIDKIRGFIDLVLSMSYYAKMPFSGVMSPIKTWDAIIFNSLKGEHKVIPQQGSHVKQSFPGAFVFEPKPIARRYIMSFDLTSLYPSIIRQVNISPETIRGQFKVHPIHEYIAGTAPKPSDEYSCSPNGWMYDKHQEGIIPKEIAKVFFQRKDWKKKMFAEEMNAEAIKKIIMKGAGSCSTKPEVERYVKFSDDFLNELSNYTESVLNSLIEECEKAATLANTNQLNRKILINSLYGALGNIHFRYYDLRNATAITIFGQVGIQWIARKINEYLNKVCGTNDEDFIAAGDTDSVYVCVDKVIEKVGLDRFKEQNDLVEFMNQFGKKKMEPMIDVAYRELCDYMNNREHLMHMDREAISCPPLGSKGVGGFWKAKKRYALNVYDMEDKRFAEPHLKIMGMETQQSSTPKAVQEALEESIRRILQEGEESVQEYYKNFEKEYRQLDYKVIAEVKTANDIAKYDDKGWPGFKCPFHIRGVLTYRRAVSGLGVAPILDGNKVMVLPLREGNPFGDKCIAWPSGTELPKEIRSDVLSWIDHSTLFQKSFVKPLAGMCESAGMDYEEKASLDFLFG
Experiment: Counter-screen against bacteriophage T4 DNA polymerase
Format: biochemical
Details: DRC-1; read at 70'; concentration 2.5
Protocol: Codon-optimized, exonuclease-deficient Pf-apPOL was overexpressed in E. coli BL21 (DE3) and purified as described. The protein was dialysed against two, 1-liter changes of 20 mM Tris-HCl (pH 8.0), 400 mM NaCl, and 20% glycerol. […] Each compound was tested in a dose-response format to determine IC50 values. […] T4 DNA polymerase can be produced in large quantities, and is in the same family (B-family) as the replicative human DNA polymerases (α, δ, and ε)[20].
Measured % inhibition T4 70' 2.5 accompanies every entry in the list below.
Entry rule: numbers only, all in %.

>>> print(df.to_string())
                            compound_string                           subject_of_test  readout_value
0  COc1ccccc1CC(=O)N1CCc2c(nc3cc(-c4ccccc4Cl)[nH]n3c2=O)C1  bacteriophage T4 DNA polymerase (Enterobacteria phage T4)          -2.29
1  O=C(c1ccccc1)N1CCc2c(nc3cc(-c4ccccc4)[nH]n3c2=O)C1  bacteriophage T4 DNA polymerase (Enterobacteria phage T4)         -4.009

The compound O=C(CCc1csc(NC(=O)Nc2ccccc2)n1)Nc1nc2ccccc2s1 showed % inhibition T4 70' 2.5 equal to 1.62

---

target: P. falciparum apicoplast DNA polymerase (Pf-apPOL) (Plasmodium falciparum); assay: Fluorescence-based high-throughput DNA polymerase assay (molecular beacon), primary screen and dose-response; format: biochemical; details: DRC-2; 180'; concentration 5
Entries annotated with measured % inhibition apPOL 180'
# value in %; strip the unit string

// known answers, use as guide
Compound	% inhibition apPOL 180' / %
O=C(Nc1cccc(C(=O)Nc2ccc(S(=O)(=O)[O-])c3cc(S(=O)(=O)[O-])cc(S(=O)(=O)[O-])c23)c1)Nc1cccc(C(=O)Nc2ccc(S(=O)(=O)[O-])c3cc(S(=O)(=O)[O-])cc(S(=O)(=O)[O-])c23)c1.[Na+].[Na+].[Na+].[Na+].[Na+].[Na+] [Molecule 39]	7.57
Cc1ccccc1C(=O)N1CCc2c(nc3cc(-c4ccccc4)[nH]n3c2=O)C1 [Molecule 41]	1.21
CCC(C)NC(=O)c1cc(NC(C)=O)cc2nc(C)ccc12 (stereo not shown) [KU0206314]	0.928
COc1ccc(C(=O)N2CCc3c(nc4cc(-c5ccccc5Cl)[nH]n4c3=O)C2)cn1 [Molecule 26]	3
CC(=O)c1cc2c(N)c(/C(N)=N/C#N)sc2nc1C [KU0015866]	-9

Given item Cc1cc(C)c2c(O)nc(SCC(=O)c3ccc(O)c(O)c3)nc2n1 [Molecule 88] , the value recorded as its % inhibition apPOL 180' is 27

For Cc1cc(C)c(O)c(/N=C/c2cc([N+](=O)[O-])cc(Br)c2O)c1 [KU0046272] the compound record lists % inhibition apPOL 180' as 1.3

---

Reported % inhibition Apol 40' values follow for various molecules
target: P. falciparum apicoplast DNA polymerase (Pf-apPOL) (Plasmodium falciparum, UniProt Q8ILY1); experiment: Fluorescence-based high-throughput DNA polymerase assay (molecular beacon), primary screen and dose-response; type: biochemical; conditions: DRC-2, 40', concentration 80;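 on % inhibition Apol 40': compound concentration given in µM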
Sequence (Q8ILY1 entry or part of it): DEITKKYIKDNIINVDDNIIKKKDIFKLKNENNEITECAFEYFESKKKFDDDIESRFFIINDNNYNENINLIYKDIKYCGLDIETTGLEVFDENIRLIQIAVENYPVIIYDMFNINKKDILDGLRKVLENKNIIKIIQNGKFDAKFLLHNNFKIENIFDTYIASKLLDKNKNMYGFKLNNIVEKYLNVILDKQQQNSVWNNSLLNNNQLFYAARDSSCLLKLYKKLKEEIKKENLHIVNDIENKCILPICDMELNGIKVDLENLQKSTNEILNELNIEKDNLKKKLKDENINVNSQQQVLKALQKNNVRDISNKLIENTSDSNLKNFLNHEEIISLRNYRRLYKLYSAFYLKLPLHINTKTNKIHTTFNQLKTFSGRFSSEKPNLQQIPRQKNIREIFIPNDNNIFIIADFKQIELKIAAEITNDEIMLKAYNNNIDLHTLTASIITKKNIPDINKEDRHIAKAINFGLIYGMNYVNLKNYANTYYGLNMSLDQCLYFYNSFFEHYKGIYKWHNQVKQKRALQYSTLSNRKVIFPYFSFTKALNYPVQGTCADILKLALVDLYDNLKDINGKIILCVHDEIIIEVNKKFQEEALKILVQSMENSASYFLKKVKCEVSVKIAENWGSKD
API: value field is a number in %; no unit string.

In [3]: df
Out[3]:
                                   molecule  readout_value
0     O=[N+]([O-])c1cc2c(cc1CN1CCCCCC1)OCO2             49
1  CSCCC(C)(O)CNC(=O)C1CC1 (stereo not shown)             41
2       CN1CC(=Cc2ccco2)C(=O)C(=Cc2ccco2)C1             55
3  CCOC(=O)C(NCc1ccco1)(NC(=O)c1ccco1)C(F)(F)F (stereo not shown)             57
4  COc1cc(/C=C2\S/C(=N/C(C)=O)NC2=O)cc(Br)c1OCC(=O)O             64

Record Cn1nc(C(=O)N2CCc3c(nc4cc(-c5ccccc5)[nH]n4c3=O)C2)c2ccccc21 . Reported % inhibition Apol 40': 47

% inhibition Apol 40' measured on O=C(Nc1nnc(-c2ccno2)o1)c1ccc2c(c1)OCO2 = 51
